biological target: human A2a receptor (Homo sapiens); assay: A2a receptor competition binding assay using Scintillation Proximity technology; conditions: membranes from HEK293 cells expressing human A2a receptor; 0.5 nM tritiated radioligand; SPA beads; 1 h room temperature
Sequence (P29274 whole entry): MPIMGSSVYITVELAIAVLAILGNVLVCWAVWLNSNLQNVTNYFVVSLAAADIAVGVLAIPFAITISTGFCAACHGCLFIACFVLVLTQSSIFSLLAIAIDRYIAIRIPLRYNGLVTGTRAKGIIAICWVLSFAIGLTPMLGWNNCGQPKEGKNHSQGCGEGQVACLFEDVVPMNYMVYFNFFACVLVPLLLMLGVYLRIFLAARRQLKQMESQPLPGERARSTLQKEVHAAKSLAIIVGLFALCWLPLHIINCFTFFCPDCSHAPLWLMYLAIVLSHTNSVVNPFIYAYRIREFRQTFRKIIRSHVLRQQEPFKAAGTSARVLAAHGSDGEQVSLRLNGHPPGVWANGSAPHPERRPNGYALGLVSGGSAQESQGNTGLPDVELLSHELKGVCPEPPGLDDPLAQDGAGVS
readoutType: EC50 (nM)

(I) COc1cccc2c1nc(N)n1nc(CCN3Cc4cncnc4C3)nc21
(II) Nc1nc2cc(F)ccc2c2nc(CCN3CCCc4ccccc43)nn12
Prompt line: Name the one with the greater EC50 value, either I or II as given. Choose, then provide that item's label.
Response line: II
(II: 27.3 nM, I: 7.6 nM)

(I) COc1cccc2c1nc(N)n1nc(CCN3CCc4[nH]ncc4C3)nc21
(II) COc1cccc2c1nc(N)n1nc(CN3CCN(C)Cc4cc(Cl)ccc43)nc21
Prompt line: Name the one with the greater EC50 value, either I or II as given. Choose, then provide that item's label.
Response line: II
(II: 191 nM, I: 6.7 nM)

* * *

target: UniProt P29274; experiment: A2a receptor competition binding assay using Scintillation Proximity technology; details: membranes from HEK293 cells expressing human A2a receptor; 0.5 nM tritiated radioligand; SPA beads; 1 h room temperature
readoutType: EC50 (nM)

These recorded examples may help you get a feel for the data.
| compound | val |
| --- | --- |
| COc1cccc2c1nc(N)n1nc(CN3Cc4cccnc4C3)nc21 [Ex-118] | 5.4 |
| COc1cccc2c1nc(N)n1nc(CN3CCc4ccccc4CC3)nc21 [Ex-131] | 16 |
| COc1cccc2c1nc(N)n1nc(CCN3CCc4oncc4C3)nc21 [Ex-35] | 2.3 |
| COc1cccc2c1nc(N)n1nc(CN3CCc4ccc(-c5ccc(F)c(F)c5)cc4C3)nc21 [Ex-168] | 4.3 |
| Nc1nc2c(F)cc(F)cc2c2nc(CCN3Cc4cccnc4C3)nn12 [Ex-100] | 31.2 |
| COc1cccc2c1nc(N)n1nc(CN3CCCc4cnccc43)nc21 [Ex-134] | 6.7 |
| COc1cccc2c1nc(N)n1nc(CCCN3Cc4ccc(C(F)(F)F)cc4C3)nc21 [Ex-230] | 5.7 |
| Nc1nc2c(Br)cccc2c2nc(CN3Cc4cccnc4C3)nn12 [Ex-195] | 16.6 |
| COc1cccc2c1nc(N)n1nc(CN3CCc4ccc(-c5cnc(N)nc5C(F)(F)F)cc4C3)nc21 [Ex-186] | 3.9 |
| Nc1nc2c(F)cccc2c2nc(CCN3CCc4ccccc4C3)nn12 [Ex-87] | 19.1 |

(I) COc1cccc2c1nc(N)n1nc(CN3CCn4c(nnc4OC)C3)nc21 [Ex-144]
(II) COc1cccc2c1nc(N)n1nc(CN3CCc4ccc(-c5cn(C)nc5C(F)(F)F)cc4C3)nc21 [Ex-184]
(III) COc1cccc2c1nc(N)n1nc(CCN3Cc4cnc(C(F)(F)F)nc4C3)nc21 [Ex-18]
(IV) COc1cccc2c1nc(N)n1nc(CCN3CCc4sccc4C3)nc21 [Ex-39]
(V) Nc1nc2c(Cl)cccc2c2nc(CCN3CCCc4ccccc43)nn12 [Ex-82]
Prompt line: // smallest EC50 at index 0, largest at the end Respond with an ordered listing of the labels, as requested.
Response line: IV, II, III, V, I
(IV: 1.8 nM, II: 2.9 nM, III: 13.3 nM, V: 24.7 nM, I: 149 nM)

(a) Nc1nc2c(OCCF)cccc2c2nc(CN3CCc4cccnc4C3)nn12 [Ex-202]
(b) COc1cccc2c1nc(N)n1nc(CCN3CCc4c(c(C(F)(F)F)nn4C)C3)nc21 [Ex-32]
Prompt line: Hi! Which is lower in terms of EC50, the first one a or the second one b ? Choose, then provide that item's label.
Response line: b

(P) COc1cccc2c1nc(N)n1nc(CN3CCn4c(nnc4SC)C3)nc21 [Ex-138]
(Q) CC[C@H](Cc1nc2c3cccc(OC)c3nc(N)n2n1)N1Cc2nc(C)oc2C1 [Ex-248]
Prompt line: Name the one with the greater EC50 value, either P or Q as given. Choose, then provide that item's label.
Response line: P
(P: 146 nM, Q: 1 nM)
